Hello, the source for this data is patent US7868163B2, in case you need it.

- Tested on: HCT-8
- experiment_notes: MTT reduction proliferation assay, HCT-8
- Assay type: cell-based, human
- condition_set: HCT-8 colon carcinoma, 24 hours
metric: IC50

| chemical_string | IC50 |
| --- | --- |
| Nc1ncnc2c1ncn2[C@@H]1O[C@H](COP(=O)(O)OP(=O)(O)OC[C@H]2O[C@@H](n3cnc4ncnc-4c3N)[C@H](O)[C@@H]2O)[C@@H](O)[C@H]1O | 65 µM |

Exercise: # return IC50 of Nc1ncn([C@@H]2O[C@H](COP(=O)(O)OP(=O)(O)OC[C@H]3O[C@@H](n4cnc5c(N)ncnc54)[C@H](O)[C@@H]3O)[C@@H](O)[C@H]2O)c2ncnc1-2 (system: HCT-8)
Key: 27 µM
